- ASSAY PROTOCOL: Toxicity liver stage against HepG2, at 10uM
- Type: cell-based
- Parameters: test concentration 10 uM, cell line HepG2-A16-CD81EGFP
- TEST CONDITIONS: human, HepG2-A16-CD81EGFP cells; read-out: INHIBITION

COMPOUND	cytotoxicity at 10 µM (%)
CC(NC(C)(C)CN)c1ccccc1 (configuration not stated)	2.62
CCc1cnc(C)nc1NCCN1CCOCC1	-2.66
Cc1nccc(C2CCCCN2Cc2cccc(F)c2)n1 (configuration not stated)	-11.6
Cn1cc(C(=O)N2CCCC(Cc3nccs3)C2)cn1 (configuration not stated)	3.83
CCNc1ncc(C(=O)N(C)Cc2nc3ccccc3n2C)cn1	6.09
CSCc1cccc(S(=O)(=O)N2CCC(C)CC2)c1	13.1
CNC(=O)c1n[nH]c2c1C(c1cccc3nsnc13)CC(=O)N2 (configuration not stated)	-13
CCc1c(C)nc(-n2nc(C3CC3)cc2NC(C)=O)[nH]c1=O	30.3
COC(=O)CC1CSCCN1C(=O)CCc1c(C)nn(C)c1C (configuration not stated)	-2.65
c1cncc(OCc2nnn3c2CN(Cc2ccsc2)CCC3)c1	-4.34
CC(C)C(c1cccnc1)N(C)C(=O)Cc1ccc(O)cc1 (configuration not stated)	-1.03
COc1ccc(CNC[C@H]2COCc3nc4cc(F)ccc4n32)cn1	0.734

Where do these numbers come from? They come from ChEMBL document CHEMBL4513216.
